assay: chemical genetic growth profiling, strain panel (AID 1159580);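 further: tested at 20 µM; growth read once vehicle control cultures reached saturation at 30 °C; 1 = growth at the plate median or of vehicle wells; lower values mean less growth of the strain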; conditions: S. cerevisiae deletion strains, growth OD, locus YPL055C, strain LGE1, stronger effect = lower value
About 2,000 (36%) of roughly 5,500 compounds were called active. Another 18% or so got no clear call; they are omitted. This is one part of the list.
Please go through the items and note down their normalized growth.
Give bare numbers.

Kindly give each listed record's normalized growth.
1. NC[C@@H]1O[C@H](C23CC4CC(CC(C4)C2)C3)Cc2c1ccc(O)c2O
2. O=[N+]([O-])c1ccc(OCCCOc2ccc([N+](=O)[O-])cc2)cc1

1: 0.599; 2: 1.02

Kindly give each listed record's normalized growth.
1. COc1ccc(Cl)cc1C(=O)NCCc1ccc(S(=O)(=O)NC(=O)NC2CCCCC2)cc1
2. O=C(Cc1cccs1)NC1C(=O)N2C(C(=O)[O-])=C(C[n+]3ccccc3)CSC12 (stereo not drawn)

[0.877, 1.03]

Kindly give each listed record's normalized growth.
1. CCOC(=O)c1c(C)cc(OC)cc1O
2. O=C1NC(=O)/C(=C/c2ccc(OS(=O)(=O)c3ccc(Cl)cc3)cc2)N1

1: 0.972; 2: 1.06

Ref: PubChem BioAssay AID1159580
